Target: T1, human IL-31-His (human, UniProt Q6EBC2 24-164)
T1 construct: form captured via anti-His tag antibody in the SPR of the scFvs (sections 1.8 and 2.4); also called hIL-31; not shown: His tag
T1 sequence (looked up): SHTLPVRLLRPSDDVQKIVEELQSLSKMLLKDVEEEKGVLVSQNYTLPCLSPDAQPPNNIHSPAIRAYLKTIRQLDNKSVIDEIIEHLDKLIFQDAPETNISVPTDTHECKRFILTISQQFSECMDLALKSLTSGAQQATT
Assay: SPR (Biacore T200), human IL-31-His captured via anti-His antibody, scFv as analyte
Listing of recorded koff by entry.

BINDER	koff (s⁻¹)
PRO1643 (scFv, scFv (VL-linker-VH), full graft of rabbit clone 50-09-D07; also called 50-09-D07-sc03; 50-09-D07-5c03) scFv: AFQLTQSPSSLSASVGDRVTITCQASQSIDSWLAWYQQKPGKPPKLLIYQASKLASGVPSRFSGSGSGTDYTLTISSLQPEDFATYYCQTYYGGGHIGWGFGTGTKVTVLGGGGGSGGGGSGGGGSGGGGSQSQLVESGGGLVQPGGSLRLSCAASGFSFSANYWICWVRQAPGKGLEWIVCIYIGSRADTYYAPWAKGRFTISKDNSKNTVYLQMNSLRAEDTAVYFCARFSSGIYDLDRFFLWGQGTLVTVSS	0.000653
PRO1902 (scFv, scFv (VL-linker-VH); variant of PRO1643 with VH Y59S (AHo numbering); also called 50-09-D07-sc06; 50-09-D07-5c06) scFv: AFQLTQSPSSLSASVGDRVTITCQASQSIDSWLAWYQQKPGKPPKLLIYQASKLASGVPSRFSGSGSGTDYTLTISSLQPEDFATYYCQTYYGGGHIGWGFGTGTKVTVLGGGGGSGGGGSGGGGSGGGGSQSQLVESGGGLVQPGGSLRLSCAASGFSFSANYWICWVRQAPGKGLEWIVCISIGSRADTYYAPWAKGRFTISKDNSKNTVYLQMNSLRAEDTAVYFCARFSSGIYDLDRFFLWGQGTLVTVSS	0.00246
PRO1903 (scFv, scFv (VL-linker-VH); variant of PRO1643 with VL D32E (AHo numbering); also called 50-09-D07-sc07; 50-09-D07-5c07) scFv: AFQLTQSPSSLSASVGDRVTITCQASQSIESWLAWYQQKPGKPPKLLIYQASKLASGVPSRFSGSGSGTDYTLTISSLQPEDFATYYCQTYYGGGHIGWGFGTGTKVTVLGGGGGSGGGGSGGGGSGGGGSQSQLVESGGGLVQPGGSLRLSCAASGFSFSANYWICWVRQAPGKGLEWIVCIYIGSRADTYYAPWAKGRFTISKDNSKNTVYLQMNSLRAEDTAVYFCARFSSGIYDLDRFFLWGQGTLVTVSS	0.000638
